Exercise: state measured inhibition of cell viability for each of the compounds provided.
- System: NCI-H1688
- Protocol Details: inhibition of cell viability relative to untreated control (fraction); higher = stronger growth inhibition, active = 0.5 or more
- Condition Parameters: 30 µM; 24 h
Give bare numbers.

Below, each entry is followed by its recorded inhibition of cell viability result.
COc1cc2ccc(=O)oc2cc1O	-0.00563
O=C(O)/C=C/c1ccccc1	-0.0303

# per-item lookup of inhibition of cell viability; items listed below
1. COc1cc(C=O)ccc1OC(C)=O
2. COc1ccc(-c2cc(=O)c3c(OC)c(OC)c(OC)c(OC)c3o2)cc1
3. COc1cc2c(cc1OC)[C@@H]1Cc3ccc(OC)c(OC)c3CN1CC2 [Tetrahydropalmatine]

Result:
[-0.295, 0.299, 0.242]

For each of the items listed, what is its inhibition of cell viability?
1. OC[C@H]1O[C@@](CO)(O[C@H]2O[C@H](CO)[C@@H](O)[C@H](O)[C@H]2O)[C@@H](O[C@H]2O[C@H](CO)[C@@H](O)[C@H](O)[C@H]2O)[C@@H]1O
2. O=c1oc2ccccc2c(O)c1Cc1c(O)c2ccccc2oc1=O

Result:
[-0.0856, 0.308]

###

- System: NCI-H1688
- Protocol Details: inhibition of cell viability relative to untreated control (fraction); higher = stronger growth inhibition, active = 0.5 or more
- Condition Parameters: 30 µM; 24 h
Counter-ions that a name gives are not always drawn.
Endpoint Name: inhibition of cell viability

Consider the reported inhibition of cell viability for these compounds:
NCCc1c[nH]cn1	0.233 (inactive)
C[n+]1cc2c3c(ccc2c2ccc4cc5c(cc4c21)OCO5)OCO3 [Sanguinarine chloride]	0.982 (active)
CN(C)[C@@H]1C(O)=C(C(N)=O)C(=O)[C@@]2(O)C(O)=C3C(=O)c4c(O)cccc4[C@@](C)(O)[C@H]3C[C@@H]12 [Tetracycline hydrochloride]	0.293 (inactive)

For every listed record, write down its inhibition of cell viability.
1. N[C@@H](Cc1c[nH]c2ccc(O)cc12)C(=O)O [L-5-Hydroxytryptophan]
2. Cc1c(C(=O)NCCO)[n+]([O-])c2ccccc2[n+]1[O-]
3. CC1=CC(=O)CC(C)(C)C1=O
4. OC[C@H]1O[C@@H](Oc2ccc(O)cc2)[C@H](O)[C@@H](O)[C@@H]1O
5. O=C(O)CCCC[C@@H]1SC[C@@H]2NC(=O)N[C@@H]21
6. COc1cc(OC)c2ccc(=O)oc2c1

Result:
0.0989 (inactive)
0.00372 (inactive)
-0.175 (inactive)
-0.263 (inactive)
-0.0414 (inactive)
-0.00623 (inactive)

###

- Tested on: NCI-H1688
- Protocol Details: inhibition of cell viability relative to untreated control (fraction); higher = stronger growth inhibition, active = 0.5 or more
- Condition Parameters: 30 µM; 24 h
Endpoint Name: inhibition of cell viability
One number for each entry.

CCCCCC1C(=O)CCC1CC(=O)OC (stereo not drawn) [Methyl Dihydrojasmonate;Hedione]	-0.235

Would you mind giving inhibition of cell viability for every compound in the list below?
1. COc1ccc([C@@H]2CC(=O)c3c(O)cc(O)cc3O2)cc1O
2. CC(=O)c1c(O)cc(O)cc1O
3. C[C@H]1O[C@@H](O[C@H]2CC[C@@]3(C)[C@@H](CC[C@]4(C)[C@@H]3C=C[C@]35OC[C@@]6(CCC(C)(C)C[C@H]63)[C@@H](O)C[C@]54C)[C@]2(C)CO)[C@H](O)[C@@H](O[C@@H]2O[C@H](CO)[C@@H](O)[C@H](O)[C@H]2O)[C@H]1O
4. CNC[C@@H](O)c1ccc(O)c(O)c1
5. CC1(C)[C@@H](O[C@H]2O[C@H](C(=O)O)[C@@H](O)[C@H](O)[C@H]2O[C@@H]2O[C@H](C(=O)O)[C@@H](O)[C@H](O)[C@H]2O)CC[C@]2(C)[C@H]3C(=O)C=C4[C@@H]5C[C@@](C)(C(=O)O)CC[C@]5(C)CC[C@@]4(C)[C@]3(C)CC[C@@H]12
6. O=Cc1ccc(O)c(O)c1

Result:
1: -0.0748; 2: 0.00993; 3: 1; 4: 0.0228; 5: -0.0055; 6: 0.314

###

For each of the compounds below, state its inhibition of cell viability.
- Test system: NCI-H1688
- Protocol Details: inhibition of cell viability relative to untreated control (fraction); higher = stronger growth inhibition, active = 0.5 or more
- Condition Parameters: 30 µM; 24 h
Numbers only.

Worked examples follow.
C=C1CC23CCC4C(C)(C(=O)OC5OC(CO)C(O)C(O)C5O)CCCC4(C)C2CCC1(OC1OC(CO)C(O)C(OC2OC(CO)C(O)C(O)C2O)C1OC1OC(C)C(O)C(O)C1O)C3 (stereo not drawn) [Dulcoside B]	0.0729
CC(/C=C/C=C(\C)C(=O)O[C@@H]1O[C@H](CO[C@@H]2O[C@H](CO)[C@@H](O)[C@H](O)[C@H]2O)[C@@H](O)[C@H](O)[C@H]1O)=C\C=C\C=C(C)\C=C\C=C(/C)C(=O)O[C@@H]1O[C@H](CO[C@@H]2O[C@H](CO)[C@@H](O)[C@H](O)[C@H]2O)[C@@H](O)[C@H](O)[C@H]1O	0.267
O=C1O[C@H]([C@H](O)CO)C([O-])=C1O.[Na+] [Sodium erythorbate]	0.0513

Value sought for every listed compound: inhibition of cell viability.
1. CC[C@H](C)[C@H](N)C(=O)O
2. CC(C)=CCC/C(C)=C/CC/C(C)=C/CC/C(C)=C/CC1=C(C)C(=O)c2ccccc2C1=O
3. O=c1ccc2ccc(O)cc2o1 [7-Hydroxycoumarin]
4. CNC1CCCN(c2c(F)cc3c(=O)c(C(=O)O)cn(C4CC4)c3c2OC)C1 (stereo not drawn)
5. COc1ccc2cc1Oc1ccc(cc1)C[C@H]1c3cc(c(OC)cc3CCN1C)Oc1c(O)c(OC)cc3c1[C@H](C2)N(C)CC3 [(+)-Fangchinoline]

Result:
1. -0.178
2. -0.0024
3. -0.0276
4. 0.118
5. 0.984

###

- System: NCI-H1688
- Protocol Details: inhibition of cell viability relative to untreated control (fraction); higher = stronger growth inhibition, active = 0.5 or more
- Condition Parameters: 30 µM; 24 h
Where a name gives a salt, the structure may show the parent alone.
Endpoint Name: inhibition of cell viability
Numbers only.

CC1(C)C2CC[C@@]3(C)[C@@H](C(=O)C=C4[C@@H]5C[C@](C)(C(=O)O)CC[C@@]5(C)CC[C@@]43C)[C@]2(C)CC[C@H]1O (stereo not given in full) [Glycyrrhetinic acid(Enoxolone)]	-0.198
CCCCCCCCCCCCCCCCCCCCCCO	-0.0686
CCc1c2c(nc3ccc(OC(=O)N4CCC(N5CCCCC5)CC4)cc13)-c1cc3c(c(=O)n1C2)COC(=O)[C@]3(O)CC [Irinotecan hydrochloride trihydrate]	0.311
CC12CCC(CC1)C(C)(C)O2	-0.192
COc1cc2c(cc1O)[C@@H](Cc1ccc(O)c(Oc3ccc(C[C@@H]4c5cc(OC)c(OC)cc5CCN4C)cc3)c1)N(C)CC2	0.977

I'm hoping you can list inhibition of cell viability for every compound here, please.
1. COc1c(O)cc(O)c2c(=O)cc(-c3ccccc3)oc12
2. O=C(O)CCC(=O)O

Result:
-0.0139
0.0297

Look at each compound and report its inhibition of cell viability.
1. COc1c(O)cc2c(c1O)[C@@H]1O[C@H](CO)[C@@H](O)[C@H](O)[C@H]1OC2=O
2. c1ccc2c(Cc3c[nH]c4ccccc34)c[nH]c2c1
3. CN1c2ccccc2C(=O)N2CCc3c([nH]c4ccccc34)C21 (stereo in doubt)
4. O=C1c2c(O)cccc2C([C@@H]2O[C@H](CO)[C@@H](O)[C@H](O)[C@H]2O)c2cc(CO)cc(O)c21 (stereo not given in full)
5. CN[C@@H]1[C@H](O)[C@H](NC)[C@H]2O[C@@]3(O)C(=O)C[C@@H](C)O[C@H]3O[C@@H]2[C@H]1O [Spectinomycin dihydrochloride]

Result:
1. 0.0368
2. 0.12
3. 0.848
4. -0.014
5. 0.186

Field: inhibition of cell viability. Fill in for each record below.
1. CCCCCCCCCCCCCCCCCCCCCCCCCCCCCCO
2. COc1c(C)c2c(c(O)c1C/C=C(\C)CCC(=O)O)C(=O)OC2
3. CC1(C)C(O[C@@H]2OC[C@@H](O)[C@H](O)[C@H]2O)CC[C@]23CC24CC[C@]2(C)[C@@H]([C@@]5(C)CC[C@@H](C(C)(C)O)O5)[C@H](O)C[C@@]2(C)C4C[C@@H](O[C@@H]2O[C@H](CO)[C@@H](O)[C@H](O)[C@H]2O)C13 (stereo not given in full) [Astragaloside IV]

Result:
0.22
0.841
-0.0383
